Attribute: DC50
- study_system: BCL6 (Homo sapiens)
- Construct: endogenous in cells; host or cells: T47D breast cancer epithelial cells
- protocol_notes: Immunofluorescence protocol for high content imaging of BCL6 (degradation) in T47D cells, 3 days compound treatment
- Assay type: cell-based
- conditions: T47D cells, 3 days compound treatment, read-out: Mean DC50 (nM)* category
property: DC50

INSERT INTO results (compound, study_system, result) VALUES
  ('CNC(=O)COc1cc2cc(Nc3nc(N4CCC(CN5CCC6(CN(c7cc8c(c(OC)c7)C(=O)N(C7CCC(=O)NC7=O)C8)C6)C(F)(F)C5)CC4)ncc3Cl)ccc2n(C(C)C)c1=O (centres unmarked)', 'BCL6 (Homo sapiens)', '< 10 nM'),
  ('CNC(=O)COc1cc2cc(Nc3nc(N4CCN(CC5(F)CCN(c6cccc7c6CN(C6CCC(=O)NC6=O)C7=O)CC5)CC4)ncc3Cl)ccc2n(C(C)C)c1=O (centres unmarked)', 'BCL6 (Homo sapiens)', '< 10 nM'),
  ('CNC(=O)COc1cc2cc(Nc3nc(N4CCC(C(C)(C)N5CCC6(CC5)CN(c5cccc7c5C(=O)N(C5CCC(=O)NC5=O)C7=O)C6)CC4)ncc3Cl)ccc2n(C(C)C)c1=O (centres unmarked)', 'BCL6 (Homo sapiens)', '< 10 nM'),
  ('CNC(=O)COc1cc2cc(Nc3nc(N4CCC(CN5CCC6(CN(c7cc8c(cc7F)C(=O)N(C7CCC(=O)NC7=O)C8)C6)C(F)(F)C5)CC4)ncc3Cl)ccc2n(C(C)C)c1=O (centres unmarked)', 'BCL6 (Homo sapiens)', '< 10 nM'),
  ('CNC(=O)COc1cc2cc(Nc3nc(N4CCC(OC5CN([C@H]6CC[C@@H](c7ccc8c(c7Cl)CN(C7CCC(=O)NC7=O)C8=O)CC6)C5)CC4)ncc3Cl)ccc2n(C(C)C)c1=O (some centres unmarked)', 'BCL6 (Homo sapiens)', '< 10 nM'),
  ('CNC(=O)COc1cc2cc(Nc3nc(C)ncc3Cl)ccc2n(CCOc2ccc3c(c2)C(=O)N(C2CCC(=O)NC2=O)C3=O)c1=O (centres unmarked)', 'BCL6 (Homo sapiens)', '< 10 nM'),
  ('CNC(=O)COc1cc2cc(Nc3nc(N4CCN(C(C)(C)C5CCN(c6cc7c(c(OC)c6)C(=O)N(C6CCC(=O)NC6=O)C7)CC5)CC4)ncc3Cl)ccc2n(C(C)C)c1=O (centres unmarked)', 'BCL6 (Homo sapiens)', '< 10 nM'),
  ('CNC(=O)COc1cc2cc(Nc3nc(N4CCC(CN5CCC6(CN(c7ccc8c(c7)C(=O)N(C7CCC(=O)NC7=O)C8=O)C6)C(F)C5)CC4)ncc3Cl)ccc2n(C(C)C)c1=O (centres unmarked)', 'BCL6 (Homo sapiens)', '< 10 nM'),
  ('CNC(=O)COc1cc2cc(Nc3nc(N4CCC(O[C@H]5C[C@H](N6CCC(c7ccc8c(c7)C(=O)N(C7CCC(=O)NC7=O)C8=O)C(F)(F)C6)C5)CC4)ncc3Cl)ccc2n(C(C)C)c1=O (some centres unmarked)', 'BCL6 (Homo sapiens)', '≥ 100 nM'),
  ('CNC(=O)COc1cc2cc(Nc3nc(N4CCC(O[C@H]5C[C@H](N6CCN(c7ccc8c(n7)C(C)N(C7CCC(=O)NC7=O)C8=O)[C@H](C)C6)C5)CC4)ncc3Cl)ccc2n(C(C)C)c1=O (stereo in doubt)', 'BCL6 (Homo sapiens)', '< 10 nM'),
  ('CNC(=O)COc1cc2cc(Nc3nc(N4CCC(O[C@H]5CC[C@H](Oc6ccc7c(c6)C(=O)N(C6CCC(=O)NC6=O)C7=O)CC5)CC4)ncc3Cl)ccc2n(C(C)C)c1=O (some centres unmarked)', 'BCL6 (Homo sapiens)', '10 to 50 nM');
